Values were extracted from ChEMBL document CHEMBL4808232.

# tested-target: Indoleamine 2,3-dioxygenase 1 (Homo sapiens, UniProt P14902)
# Sequence (P14902 whole entry): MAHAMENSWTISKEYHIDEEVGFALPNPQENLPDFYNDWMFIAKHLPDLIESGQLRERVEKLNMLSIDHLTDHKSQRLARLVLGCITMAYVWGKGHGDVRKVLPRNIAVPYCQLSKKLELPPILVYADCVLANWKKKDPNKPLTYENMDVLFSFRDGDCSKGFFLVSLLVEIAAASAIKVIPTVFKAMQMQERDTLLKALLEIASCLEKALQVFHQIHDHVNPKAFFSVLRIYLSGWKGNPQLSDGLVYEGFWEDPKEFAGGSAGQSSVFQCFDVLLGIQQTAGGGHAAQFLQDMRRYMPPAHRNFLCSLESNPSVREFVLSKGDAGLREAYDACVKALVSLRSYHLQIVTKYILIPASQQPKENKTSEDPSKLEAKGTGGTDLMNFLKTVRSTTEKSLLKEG
# experimental-details: Inhibition of IDO1 in human whole blood
# Format: tissue-based
pIC50: −log10 of the molar value.
Where pIC50 equals or exceeds 7, the correct label is yes; where it does not, the label is no.

Worked examples follow.
[
  {
    "compound": "O=C(Nc1ccc(F)cc1)C1(C2CCC3C(CCCN3c3ccnc(C(F)(F)F)n3)C2)CCC1 (stereo in doubt; 20)",
    "label-class": "yes"
  },
  {
    "compound": "C[C@@H](C(=O)Nc1ccc(F)cc1)C1CCC2C(CCCN2C(=O)c2cccc(Cl)c2)C1 (stereo in doubt; 5)",
    "label-class": "no"
  },
  {
    "compound": "CC(C(=O)Nc1ccc(Cl)cc1)N1CCC2C(CCCN2c2ccnc(C(F)(F)F)n2)C1 (stereo in doubt; 36)",
    "label-class": "no"
  },
  {
    "compound": "Cc1nccc(N2CCCC3CC(C4(C(=O)Nc5ccc(F)cc5)CCC4)CCC32)n1 (stereo in doubt; 15)",
    "label-class": "yes"
  }
]

Req: Check if pIC50 >= 7 (inclusive). Item: CC(C(=O)Nc1ccc(Cl)cc1)N1CCC2C(CCCN2C(=O)OC2CC2)C1 (stereo in doubt; 25)
Resp: no

---

# experimental-details: Clearance in male Wistar Han rats at 0.05 mg/kg, iv
# Assay type: ADME, organism-based
# measurement-parameters: rat, in vivo
Documented clearance across a set of molecules
Quick note: give the figure in mL/min/kg, leave out the unit.

[
  {
    "molecule": "O=C(CN1CCC2C(CCCN2C(=O)c2cccc(Cl)c2)C1)Nc1ccc(F)cc1 (stereo in doubt; 24)",
    "measured-result": 61
  },
  {
    "molecule": "C[C@@H](C(=O)Nc1ccc(F)cc1)C1CCC2C(CCCN2C(=O)c2cccc(Cl)c2)C1 (stereo in doubt; 3)",
    "measured-result": 51
  },
  {
    "molecule": "CC(C(=O)Nc1ccc(Cl)cc1)N1CCC2C(CCCN2C(=O)OC2CC2)C1 (stereo in doubt; 27)",
    "measured-result": 22
  },
  {
    "molecule": "CC(C(=O)Nc1ccc(Cl)cc1)N1CCC2C(CCCN2c2ccnc(C(F)(F)F)n2)C1 (stereo in doubt; 33)",
    "measured-result": 19
  }
]

Continue with the molecule presented below.
get_value(item= Cc1nccc(N2CCCC3CN(C(C)C(=O)Nc4ccc(Cl)cc4)CCC32)n1 (stereo in doubt; 32) , readout=clearance) returns 31

---

# tested-target: Indoleamine 2,3-dioxygenase 1 (Homo sapiens, UniProt P14902)
# experimental-details: Inhibition of IDO1 in human whole blood
# Type: tissue-based
result-type: pIC50
In plain terms, pIC50 is the concentration in mol/L turned into minus its base-10 logarithm.

Here's what some known entries look like.
[
  {
    "compound": "C[C@@H](C(=O)Nc1ccc(F)cc1)C1CCC2C(CCCN2C(=O)c2cccc(Cl)c2)C1 (stereo in doubt; 3)",
    "pIC50": 7.49
  },
  {
    "compound": "CC(C(=O)Nc1ccc(Cl)cc1)N1CCC2C(CCCN2C(=O)OC2CC2)C1 (stereo in doubt; 27)",
    "pIC50": 7.37
  },
  {
    "compound": "O=C(C1CC1)N1CCCC2CC(C3(C(=O)Nc4ccc(F)cc4)CCC3)CCC21 (stereo in doubt; 12)",
    "pIC50": 7.82
  }
]

Shifting focus to the compound that follows.
Value of measured pIC50 for the entry CC(C(=O)Nc1ccc(Cl)cc1)N1CCC2C(CCCN2c2ccnc(C(F)(F)F)n2)C1 (stereo in doubt; 34) : 6.09

---

# experimental-details: MRT in male Wistar Han rat at 0.05 mg/kg, iv
# Type: ADME, organism-based
# measurement-parameters: in vivo, 0.05 mg/kg
result-type: MRT (h)
Field format: number, assumed h, no unit text.

[
  {
    "compound": "Cc1nccc(N2CCCC3CC(C4(C(=O)Nc5ccc(F)cc5)CCC4)CCC32)n1 (stereo in doubt; 16)",
    "unit-spec": "h",
    "MRT": 1.8
  },
  {
    "compound": "O=C(Nc1ccc(F)cc1)C1(C2CCC3C(CCCN3c3ccnc(C(F)(F)F)n3)C2)CCC1 (stereo in doubt; 22)",
    "unit-spec": "h",
    "MRT": 3.5
  },
  {
    "compound": "O=C(Nc1ccc(F)cc1)C1(C2CCC3C(CCCN3c3ccnc(C(F)(F)F)n3)C2)CCC1 (stereo in doubt; 20)",
    "unit-spec": "h",
    "MRT": 2.7
  },
  {
    "compound": "O=C(Nc1ccc(F)cc1)C1(C2CCC3C(CCCN3c3ccnc(C(F)(F)F)n3)C2)CCC1 (stereo in doubt; 21)",
    "unit-spec": "h",
    "MRT": 2.9
  },
  {
    "compound": "CC(C(=O)Nc1ccc(Cl)cc1)N1CCC2C(CCCN2c2ccnc(C(F)(F)F)n2)C1 (stereo in doubt; 36)",
    "unit-spec": "h",
    "MRT": 3.7
  }
]

// MRT value for C[C@@H](C(=O)Nc1ccc(F)cc1)C1CCC2C(CCCN2C(=O)c2cccc(Cl)c2)C1 (stereo in doubt; 6) : 1.1

response.value for CC(C(=O)Nc1ccc(Cl)cc1)N1CCC2C(CCN2C(=O)OC2CC2)C1 (stereo in doubt; 39) (field: MRT) = 2.8

---

The reader will find reported pIC50 values listed item by item below.
# tested-target: UniProt:P14902
# experimental-details: Inhibition of IDO1 in human HeLa cells assessed as production of N-formylkynurenine using tryptophan as substrate in presence of inactivated fetal bovine serum
# Type: cell-based
// field semantics: pIC50 = negative decimal log of concentration (mol/L)

Some solved entries appear below for comparison.
[
  {
    "compound": "O=C(Nc1ccc(F)cc1)C1(C2CCC3C(CCCN3c3ccnc(C(F)(F)F)n3)C2)CCC1 (stereo in doubt; 19)",
    "pIC50": 8.72
  },
  {
    "compound": "O=C(c1cccc(Cl)c1)N1CCCC2CC(C3(C(=O)Nc4ccc(F)cc4)CCC3)CCC21 (stereo in doubt; 9)",
    "pIC50": 8.15
  }
]

Looking up CC(C(=O)Nc1ccc(Cl)cc1)N1CCC2C(CCN2C(=O)OC2CC2)C1 (stereo in doubt; 38) , I found its pIC50 recorded as 7.80

Sample CC(C(=O)Nc1ccc(Cl)cc1)N1CCC2C(CCN2C(=O)OC2CC2)C1 (stereo in doubt; 37) ; pIC50 observed: 7.96

For this compound ( Cc1nccc(N2CCCC3CC(C4(C(=O)Nc5ccc(F)cc5)CCC4)CCC32)n1 (stereo in doubt; 15) ), measured pIC50 is 8.80

Quick note, pIC50 for O=C(Nc1ccc(F)cc1)C1(C2CCC3C(CCCN3c3ccnc(C(F)(F)F)n3)C2)CCC1 (stereo in doubt; 22) landed at 8.49

Looking up O=C(C1CC1)N1CCCC2CC(C3(C(=O)Nc4ccc(F)cc4)CCC3)CCC21 (stereo in doubt; 11) , I found its pIC50 recorded as 6.97

# compound CC(C(=O)Nc1ccc(Cl)cc1)N1CCC2C(CCCN2C(=O)OC2CC2)C1 (stereo in doubt; 27) ; its pIC50 = 8.72

---

# experimental-details: MRT in male Wistar Han rat at 0.05 mg/kg, iv
# Assay type: ADME, organism-based
# measurement-parameters: male, Wistar Han, in vivo, read-out: MRT
// MRT lookup, one value per entry
Field format: number, assumed h, no unit text.

Memo: Cc1nccc(N2CCCC3CC(C4(C(=O)Nc5ccc(F)cc5)CCC4)CCC32)n1 (stereo in doubt; 15) , reported MRT: 1.7

Given item O=C(CN1CCC2C(CCCN2C(=O)c2cccc(Cl)c2)C1)Nc1ccc(F)cc1 (stereo in doubt; 24) , the value recorded as its MRT is 1.6

Query CC(C(=O)Nc1ccc(Cl)cc1)N1CCC2C(CCN2C(=O)OC2CC2)C1 (stereo in doubt; 38) yields MRT of 1.5

The compound O=C(Nc1ccc(F)cc1)C1(C2CCC3C(CCCN3c3ccnc(C(F)(F)F)n3)C2)CCC1 (stereo in doubt; 19) showed MRT equal to 1.9

Value of measured MRT for the entry C[C@@H](C(=O)Nc1ccc(F)cc1)C1CCC2C(CCCN2C(=O)c2cccc(Cl)c2)C1 (stereo in doubt; 3) : 1.6

Given item CC(C(=O)Nc1ccc(Cl)cc1)N1CCC2C(CCCN2c2ccnc(C(F)(F)F)n2)C1 (stereo in doubt; 33) , the value recorded as its MRT is 3

MRT in this record for Cc1nccc(N2CCCC3CN(C(C)C(=O)Nc4ccc(Cl)cc4)CCC32)n1 (stereo in doubt; 32) : 2.9

For CC(C(=O)Nc1ccc(Cl)cc1)N1CCC2C(CCCN2C(=O)OC2CC2)C1 (stereo in doubt; 27) the compound record lists MRT as 2.9
